# zone of inhibition at 50 µg/disc per record follows
- Test system: Pseudomonas aeruginosa
- test summary: Antimicrobial activity against Pseudomonas aeruginosa assessed as zone of inhibition at 50 ug/well after 24 hrs by agar well diffusion method
- Type: functional
- applied conditions: read-out: DIZ
Express it in mm; write the number only.

# mol smiles, zone of inhibition at 50 µg/disc, mm
measured = [
    ("O=C(NS(=O)(=O)c1c(-c2ccccc2)noc1-c1ccccc1)c1ccc(Cl)s1", 17),
    ("O=C(NS(=O)(=O)c1c(-c2ccccc2)nn(-c2ccccc2)c1-c1ccc([N+](=O)[O-])cc1)c1ccc(Cl)s1", 22),
    ("O=C(NS(=O)(=O)c1c(-c2ccccc2)nn(-c2ccccc2)c1-c1ccccc1)c1cccs1", 9),
    ("O=C(NS(=O)(=O)/C=C/c1ccc([N+](=O)[O-])cc1)c1cccs1", 16),
]

API: the following record is the query input.
Tested on Pseudomonas aeruginosa, the item Cc1ccc(-c2onc(-c3ccccc3)c2S(=O)(=O)NC(=O)c2ccc(Cl)s2)cc1 showed zone of inhibition at 50 µg/disc equal to 8
